target: human TREM2/DAP12 fusion protein (human, UniProt O43914 41-113, limits assumed); assay: cell-based or functional assay
Sequence (O43914 other isoform, or with tags, fused parts or gaps limits assumed): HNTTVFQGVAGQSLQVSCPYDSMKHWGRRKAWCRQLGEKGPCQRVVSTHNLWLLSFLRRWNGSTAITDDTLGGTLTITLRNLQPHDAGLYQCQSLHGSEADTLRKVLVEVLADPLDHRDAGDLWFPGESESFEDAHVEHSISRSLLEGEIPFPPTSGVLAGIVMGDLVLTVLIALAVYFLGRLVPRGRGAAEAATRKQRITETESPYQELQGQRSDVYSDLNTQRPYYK
Measured Luciferase activation plate bound 33 nM IgG, FOC values are reported for all entries that follow.
State just the number; it will be interpreted in FOC.

Some entries whose results are on file:
AL2p-13 (antibody, V domains shown, Fab and IgG formats under one id; also called AL22-13) VH: QVQLVQSGAEVKKPGSSVKVSCKASGYAFSSHWMNWVRQAPGQGLEWMGRIYPGDGDTNYAQKFKGRVTITADESTSTAYMELSSLRSEDTAVYYCARLLRNQPGESYAMDYWGQGTLVTVSS VL: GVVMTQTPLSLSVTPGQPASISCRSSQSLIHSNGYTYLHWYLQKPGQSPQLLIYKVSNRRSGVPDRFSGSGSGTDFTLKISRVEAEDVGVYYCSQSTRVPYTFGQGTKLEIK | 16.5
AL2p-12 (antibody, V domains shown, Fab and IgG formats under one id) VH: QVQLVQSGAEVKKPGSSVKVSCKASGYAFSSHWMNWVRQAPGQGLEWMGRIYPGDGDTNYAHKFQGRVTITADESTSTAYMELSSLRSEDTAVYYCARLLRNQPGESYAMDYWGQGTLVTVSS VL: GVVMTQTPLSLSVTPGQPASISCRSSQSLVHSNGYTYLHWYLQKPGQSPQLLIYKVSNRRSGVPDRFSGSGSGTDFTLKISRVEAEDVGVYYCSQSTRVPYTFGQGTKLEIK | 15.8

// next entry
Briefly, Luciferase activation plate bound 33 nM IgG, FOC measured for AL2p-27 (antibody, V domains shown, Fab and IgG formats under one id) VH: QVQLVQSGAEVKKPGSSVKVSCKASGYAFSSHWMNWVRQAPGQGLEWMGRIYPGQGDTNYAQKFQGRVTITADESTSTAYMELSSLRSEDTAVYYCARLLRNQPGESYAMDYWGQGTLVTVSS VL: GVVMTQTPLSLSVTPGQPASISCRSSRSLVHSNGYTYLHWYLQKPGQSPQLLIYKVSNRVSGVPDRFSGSGSGTDFTLKISRVEAEDVGVYYCSQSTRVPYTFGQGTKLEIK : 24.4
